Hey, just so you know, these numbers are from paper PMC9268552.

Would you mind telling me the reported SI (CC50/IC50) of each entry?
Tested on: influenza virus A/Puerto Rico/8/34 (H1N1)
Conditions: influenza A/Puerto Rico/8/34 (H1N1); MDCK cells

Known value: influenza virus A/Puerto Rico/8/34 (H1N1) SI (CC50/IC50) of the compound C[C@@H]1COc2c(ccc(F)c2F)N1C(=O)CCCCCNc1ncnc2[nH]ccc12.C[C@@H]1COc2c(ccc(F)c2F)N1C(=O)CCCCCNc1ncnc2[nH]ccc12.O (racemic) [(RS)-5e] equals 1

Known value: influenza virus A/Puerto Rico/8/34 (H1N1) SI (CC50/IC50) of the compound CC1COc2c(ccc(F)c2F)N1C(=O)CCCCCNc1cc(Cl)nc(N)n1 (racemic) [(RS)-5b] equals <8

Known value: influenza virus A/Puerto Rico/8/34 (H1N1) SI (CC50/IC50) of the compound CCC(CC)O[C@@H]1C=C(C(=O)O)C[C@H](N)[C@H]1NC(C)=O [Oseltamivir carboxylate, reference compound] equals >667

Known value: influenza virus A/Puerto Rico/8/34 (H1N1) SI (CC50/IC50) of the compound C[C@H]1COc2c(ccc(F)c2F)N1C(=O)CCCCCNc1ncnc2[nH]ccc12 [(S)-5e] equals <2

Known value: influenza virus A/Puerto Rico/8/34 (H1N1) SI (CC50/IC50) of the compound CC1COc2c(ccc(F)c2F)N1C(=O)CCCCCNc1cc(Cl)ncn1 (racemic) [(RS)-5c] equals 1

Known value: influenza virus A/Puerto Rico/8/34 (H1N1) SI (CC50/IC50) of the compound C[C@@H]1COc2c(ccc(F)c2F)N1C(=O)CCCCCNc1ccnc(N)n1.C[C@@H]1COc2c(ccc(F)c2F)N1C(=O)CCCCCNc1ccnc(N)n1.O.O.O (racemic) [(RS)-5a] equals >1

Known value: influenza virus A/Puerto Rico/8/34 (H1N1) SI (CC50/IC50) of the compound C[C@H]1COc2c(ccc(F)c2F)N1C(=O)CCCCCNc1ccnc(N)n1.O [(S)-5a] equals >3
